Data credit: patent US20190218226A1

Tested on: HOP-62
Assay: NCI60 antiproliferative screen, lung HOP-62
Format: cell-based, human
Conditions: HOP-62, 48 h, sulforhodamine B; read-out: Cytotoxicity (GI50) lung HOP-62

Molecule Smiles | Units Label | Prefix Operator | GI50
COc1cc2c3c(n(CCCN4CCOCC4)c(=O)c2cc1OC(C)=O)-c1cc2c(cc1C3=O)OCO2 | nM | < | 10
COc1cc2c(=O)n(CCCN3CCOCC3)c3c(c2cc1OC(=O)c1ccccc1)C(=O)c1cc2c(cc1-3)OCO2 | nM | = | 79
COc1cc2c3c(n(CCCN4CCOCC4)c(=O)c2cc1OC(=O)c1ccccc1)-c1cc2c(cc1C3=O)OCO2 | nM | = | 2140
COc1cc2c3c(n(CCCN4CCOCC4)c(=O)c2cc1OS(=O)(=O)O)-c1cc2c(cc1C3=O)OCO2 | nM | = | 389
COC(=O)CCC(=O)Oc1cc2c3c(n(CCCN4CCOCC4)c(=O)c2cc1OC)-c1cc2c(cc1C3=O)OCO2 | nM | < | 10
COc1cc2c(=O)n(CCCN3CCOCC3)c3c(c2cc1OC(C)=O)C(=O)c1cc2c(cc1-3)OCO2 | nM | = | 18
COC(=O)CCC(=O)Oc1cc2c(=O)n(CCCN3CCOCC3)c3c(c2cc1OC)C(=O)c1cc2c(cc1-3)OCO2 | nM | = | 16

---

Molecular target: Human recombinant Top1 (Homo sapiens)
Construct: made in house
Sequence (P11387 whole entry): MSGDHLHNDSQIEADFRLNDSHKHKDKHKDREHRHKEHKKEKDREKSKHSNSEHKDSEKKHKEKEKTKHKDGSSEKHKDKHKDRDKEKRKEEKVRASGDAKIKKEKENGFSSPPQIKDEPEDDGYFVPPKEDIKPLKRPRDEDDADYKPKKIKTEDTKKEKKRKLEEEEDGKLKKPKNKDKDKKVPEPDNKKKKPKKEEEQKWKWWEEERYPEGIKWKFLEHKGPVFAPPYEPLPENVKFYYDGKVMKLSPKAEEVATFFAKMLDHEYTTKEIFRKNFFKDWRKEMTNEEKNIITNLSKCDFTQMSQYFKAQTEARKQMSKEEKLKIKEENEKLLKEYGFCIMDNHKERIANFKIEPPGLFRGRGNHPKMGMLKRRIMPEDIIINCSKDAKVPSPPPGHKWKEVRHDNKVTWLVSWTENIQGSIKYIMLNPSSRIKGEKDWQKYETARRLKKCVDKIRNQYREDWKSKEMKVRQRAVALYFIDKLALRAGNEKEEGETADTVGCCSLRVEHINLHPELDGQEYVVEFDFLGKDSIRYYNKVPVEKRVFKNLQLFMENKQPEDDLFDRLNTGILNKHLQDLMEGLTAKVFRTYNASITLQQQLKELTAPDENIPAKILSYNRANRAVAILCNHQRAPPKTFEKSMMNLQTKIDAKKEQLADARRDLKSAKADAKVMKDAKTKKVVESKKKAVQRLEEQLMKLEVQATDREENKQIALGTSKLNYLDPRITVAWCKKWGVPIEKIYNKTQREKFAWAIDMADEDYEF
Experiment: Top1-mediated DNA cleavage assay
Assay type: biochemical
Parameters: key: 0, no detectable activity; +, weak activity; ++, similar activity to compound 4; +++, greater activity than 4; ++++, equipotent with 1; ++(+) would be between ++ and +++
Details: scored relative to compounds 1 and 4

Molecule Smiles | Top1 inhibitory activity (level)
COc1cc2c(=O)n(CCCN3CCOCC3)c3c(c2cc1OC(C)=O)C(=O)c1cc2c(cc1-3)OCO2 | ++
COc1cc2c(=O)n(CCCN3CCOCC3)c3c(c2cc1OC(=O)c1cccnc1)C(=O)c1cc2c(cc1-3)OCO2 | +++
COc1cc2c(=O)n(CCCN3CCOCC3)c3c(c2cc1OC(=O)N(C)C)C(=O)c1cc2c(cc1-3)OCO2 | +++
COc1cc2c(=O)n(CCCN3CCOCC3)c3c(c2cc1OC(=O)c1ccccc1)C(=O)c1cc2c(cc1-3)OCO2 | +
COC(=O)CCC(=O)Oc1cc2c3c(n(CCCN4CCOCC4)c(=O)c2cc1OC)-c1cc2c(cc1C3=O)OCO2 | +
COc1cc2c(=O)n(CCCN3CCOCC3)c3c(c2cc1O)C(=O)c1cc2c(cc1-3)OCO2 | ++(+)

---

Tested on: DU-145
Test: NCI60 antiproliferative screen, prostate DU-145
Format: cell-based, human
Conditions: DU-145, 48 h, sulforhodamine B; read-out: Cytotoxicity (GI50) prostate DU-145
Measured GI50, listed per entry.
Property Name: GI50 (nM)

Molecule Smiles | Prefix Operator | Measurement
COc1cc2c3c(n(CCCN4CCOCC4)c(=O)c2cc1OC(=O)c1ccccc1)-c1cc2c(cc1C3=O)OCO2 | = | 724
COc1cc2c(=O)n(CCCN3CCOCC3)c3c(c2cc1OC(C)=O)C(=O)c1cc2c(cc1-3)OCO2 | < | 10
COc1cc2c3c(n(CCCN4CCOCC4)c(=O)c2cc1OS(=O)(=O)O)-c1cc2c(cc1C3=O)OCO2 | = | 417
COc1cc2c(=O)n(CCCN3CCOCC3)c3c(c2cc1OC(=O)c1ccccc1)C(=O)c1cc2c(cc1-3)OCO2 | = | 51

---

System: SN12C
Assay: NCI60 antiproliferative screen, renal SN12C
Assay type: cell-based, human
Settings: Homo sapiens, 48 h, sulforhodamine B, read-out: Cytotoxicity (GI50) renal SN12C

Molecule Smiles | Assayed System | GI50
COc1cc2c3c(n(CCCN4CCOCC4)c(=O)c2cc1OC(=O)c1cccnc1)-c1cc2c(cc1C3=O)OCO2 | SN12C | < 0.01 µM
COc1cc2c3c(n(CCCN4CCOCC4)c(=O)c2cc1O)-c1cc2c(cc1C3=O)OCO2 | SN12C | < 0.01 µM
COc1cc2c(=O)n(CCCN3CCOCC3)c3c(c2cc1OC(=O)c1cccnc1)C(=O)c1cc2c(cc1-3)OCO2 | SN12C | < 0.01 µM
